# assay_explanation: In vitro dissociation in blood plasma of rat
# Format: in vitro ADME, SD rats
# condition_notes: fresh SD rat plasma, 37° C., 10 min incubation
Structures can show the parent of a compound that is named as a salt.
Catalogue of Sampling time/Dissociation percent (%) 10 min values
experimental_readout: Sampling time/Dissociation percent (%) 10 min

[
  {
    "molecule": "CO[C@H]1C(=O)[C@]2(C)[C@@H](OC)C[C@H]3OC[C@@]3(OC(C)=O)[C@H]2[C@H](OC(=O)c2ccccc2)[C@]2(O)C[C@H](OC(=O)[C@H](OC(=O)[C@@H](F)CCN(C)C)[C@@H](NC(=O)OC(C)(C)C)c3ccccc3)C(C)=C1C2(C)C.CS(=O)(=O)O",
    "result_units": "%",
    "measured_number": 100
  },
  {
    "molecule": "CC(=O)O[C@@]12CO[C@@H]1C[C@H](O)[C@@]1(C)C(=O)[C@H](O)C3=C(C)[C@@H](OC(=O)[C@H](OC(=O)C(F)CCN(C)C)[C@@H](NC(=O)OC(C)(C)C)c4ccccc4)C[C@@](O)([C@@H](OC(=O)c4ccccc4)[C@H]21)C3(C)C.CS(=O)(=O)O (some centres unmarked)",
    "result_units": "%",
    "measured_number": 100
  },
  {
    "molecule": "CO[C@H]1C(=O)[C@]2(C)[C@@H](OC)C[C@H]3OC[C@@]3(OC(C)=O)[C@H]2[C@H](OC(=O)c2ccccc2)[C@]2(O)C[C@H](OC(=O)[C@H](OC(=O)[C@H](F)CCN(C)C)[C@@H](NC(=O)OC(C)(C)C)c3ccccc3)C(C)=C1C2(C)C [Compound 07, hydrochloride]",
    "result_units": "%",
    "measured_number": 100
  },
  {
    "molecule": "CC(=O)O[C@H]1C(=O)[C@@]2(C)[C@H]([C@H](OC(=O)c3ccccc3)[C@]3(O)C[C@H](OC(=O)[C@H](OC(=O)[C@H](F)CCN(C)C)[C@@H](NC(=O)c4ccccc4)c4ccccc4)C(C)=C1C3(C)C)[C@]1(OC(C)=O)CO[C@@H]1C[C@@H]2O.Cl",
    "result_units": "%",
    "measured_number": 100
  },
  {
    "molecule": "CCN(CC)CC[C@](C)(C(=O)O[C@@H](C(=O)O[C@H]1C[C@@]2(O)[C@@H](OC(=O)c3ccccc3)[C@@H]3[C@]4(OC(C)=O)CO[C@@H]4C[C@H](OC)[C@@]3(C)C(=O)[C@H](OC)C(=C1C)C2(C)C)[C@@H](NC(=O)OC(C)(C)C)c1ccccc1)C(F)(F)F.CS(=O)(=O)O",
    "result_units": "%",
    "measured_number": 97.2
  },
  {
    "molecule": "CCCC(CC(F)(F)C(=O)O[C@@H](C(=O)O[C@H]1C[C@@]2(O)[C@@H](OC(=O)c3ccccc3)[C@@H]3[C@]4(OC(C)=O)CO[C@@H]4C[C@H](O)[C@@]3(C)C(=O)[C@H](O)C(=C1C)C2(C)C)[C@@H](NC(=O)OC(C)(C)C)c1ccccc1)N1CC1.Cl (some centres unmarked)",
    "result_units": "%",
    "measured_number": 71.3
  },
  {
    "molecule": "COC1C(=O)C2(C)C(OC)CC3OCC3(OC(C)=O)C2C(OC(=O)c2ccccc2)C2(O)CC(OC(=O)C(OC(=O)C(F)CCN(C)C)C(NC(=O)OC(C)(C)C)c3ccccc3)C(C)=C1C2(C)C.Cl (centres unmarked)",
    "result_units": "%",
    "measured_number": 100
  },
  {
    "molecule": "CC(=O)OC12COC1CCC1(C)C3OC(CN(C)C)OC3C3=C(C)C(OC(=O)C(OC(=O)C(F)CC(C)N(C)C)C(NC(=O)OC(C)(C)C)c4ncccc4F)CC(O)(C(OC(=O)c4ccccc4)C12)C3(C)C.CS(=O)(=O)O (centres unmarked)",
    "result_units": "%",
    "measured_number": 100
  },
  {
    "molecule": "CCN(C)C(C)C[C@H](CC(F)F)C(=O)O[C@@H](C(=O)O[C@H]1C[C@@]2(O)[C@@H](OC(=O)c3ccccc3)[C@@H]3[C@]4(OC(C)=O)CO[C@@H]4C[C@H](O)[C@@]3(C)C(=O)[C@H](O)C(=C1C)C2(C)C)[C@@H](NC(=O)OC(C)(C)C)c1ccccc1.Cl (some centres unmarked)",
    "result_units": "%",
    "measured_number": 89.6
  },
  {
    "molecule": "CC(=O)O[C@H]1C(=O)[C@]23C[C@H]2C[C@H]2OC[C@@]2(OC(C)=O)[C@H]3[C@H](OC(=O)c2ccccc2)[C@]2(O)C[C@H](OC(=O)[C@H](OC(=O)[C@H](F)CC(C)N(C)C)[C@@H](NC(=O)OC(C)(C)C)c3ccccc3)C(C)=C1C2(C)C.Cl (some centres unmarked)",
    "result_units": "%",
    "measured_number": 100
  },
  {
    "molecule": "CO[C@H]1C(=O)[C@]2(C)[C@@H](OC)C[C@H]3OC[C@@]3(OC(C)=O)[C@H]2[C@H](OC(=O)c2ccccc2)[C@]2(O)C[C@H](OC(=O)[C@H](OC(=O)[C@@H](CCN)C(F)F)[C@@H](NC(=O)OC(C)(C)C)c3ccccc3)C(C)=C1C2(C)C.O=S(=O)(O)O",
    "result_units": "%",
    "measured_number": 97.3
  },
  {
    "molecule": "CC(=O)O[C@@]12CO[C@@H]1CC[C@@]1(C)[C@@H]3O[C@H](CN(C)C)O[C@@H]3C3=C(C)[C@@H](OC(=O)[C@H](OC(=O)[C@H](F)CC(C)N(C)C)[C@@H](NC(=O)OC(C)(C)C)c4ncccc4F)C[C@@](O)([C@@H](OC(=O)c4ccccc4)[C@@H]12)C3(C)C.Cl (some centres unmarked)",
    "result_units": "%",
    "measured_number": 100
  },
  {
    "molecule": "CO[C@H]1C(=O)[C@]2(C)[C@@H](OC)C[C@H]3OC[C@@]3(OC(C)=O)[C@H]2[C@H](OC(=O)c2ccccc2)[C@]2(O)C[C@H](OC(=O)[C@H](OC(=O)[C@@H](F)CCN(C)C)[C@@H](NC(=O)OC(C)(C)C)c3ccccc3)C(C)=C1C2(C)C.Cl",
    "result_units": "%",
    "measured_number": 100
  },
  {
    "molecule": "CC(=O)O[C@H]1C(=O)[C@@]2(C)[C@H]([C@H](OC(=O)c3ccccc3)[C@]3(O)C[C@H](OC(=O)[C@H](OC(=O)C(F)CCN(C)C)[C@@H](NC(=O)c4ccccc4)c4ccccc4)C(C)=C1C3(C)C)[C@]1(OC(C)=O)CO[C@@H]1C[C@@H]2O.CS(=O)(=O)O (some centres unmarked)",
    "result_units": "%",
    "measured_number": 100
  }
]
